Data origin, for the record: ChEMBL document CHEMBL1641425

Kindly supply the reported pIC50 values for the records listed here.
# assayed-system: Sodium-dependent noradrenaline transporter (Homo sapiens, UniProt P23975)
# Sequence (P23975 whole entry): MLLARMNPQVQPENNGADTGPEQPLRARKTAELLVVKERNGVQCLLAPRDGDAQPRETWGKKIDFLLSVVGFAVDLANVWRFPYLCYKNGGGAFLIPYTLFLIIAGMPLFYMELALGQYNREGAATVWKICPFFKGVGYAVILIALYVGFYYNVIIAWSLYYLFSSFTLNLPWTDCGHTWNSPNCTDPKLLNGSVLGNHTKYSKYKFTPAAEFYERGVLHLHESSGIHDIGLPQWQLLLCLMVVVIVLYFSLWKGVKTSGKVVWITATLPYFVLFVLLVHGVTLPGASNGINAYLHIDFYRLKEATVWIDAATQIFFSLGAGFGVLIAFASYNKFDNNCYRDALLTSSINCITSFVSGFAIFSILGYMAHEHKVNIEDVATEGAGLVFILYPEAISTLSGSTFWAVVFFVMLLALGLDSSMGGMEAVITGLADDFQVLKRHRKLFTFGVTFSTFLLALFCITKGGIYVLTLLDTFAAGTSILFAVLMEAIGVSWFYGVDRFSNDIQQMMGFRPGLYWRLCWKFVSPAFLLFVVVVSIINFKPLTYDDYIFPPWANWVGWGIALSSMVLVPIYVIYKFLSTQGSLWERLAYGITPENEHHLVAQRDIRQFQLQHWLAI
# run-description: Inhibition of human recombinant norepinephrine transporter
Numbers only, as −log10 of the molar value.

Example entries begin here.
>>> print(df.to_string())
                                   molecule  observable  reported
0  CNC1CCN(c2ccc(Cl)c(Cl)c2)c2ccccc21 (stereo unspecified)       pIC50      6.03
1  CN(C)C1Cc2ccccc2N(c2ccc(Cl)c(Cl)c2)C1 (stereo unspecified)       pIC50      5.73

Could you tell me pIC50 for each of these molecules? They are listed below.
1. CNC1Cc2ccccc2N(c2ccc(Cl)c(Cl)c2)C1 (stereo unspecified)
2. N[C@@H]1CCN(c2ccc(Cl)c(Cl)c2)c2ccccc21
3. CN(C)C1CCN(c2ccc(Cl)c(Cl)c2)c2ccccc21 (stereo unspecified)
4. CN[C@@H]1CCN(c2ccc(Cl)c(Cl)c2)c2ccccc21

Reply text:
6.00
6.86
5.15
6.22
